Give measured TGI for each item. Keep answers brief.
System: MOLT-4 leukemia
Assay: NCI tumour cell line growth inhibition, 48 h

Recorded TGI, per entry:
Q: Return reported TGI. Input compound: "CSc1nnnc2ccccc12"
Ans: > 100 µM

Q: Return reported TGI. Input compound: "N#Cc1c(/C=C/c2ccccc2)c2c([nH]c1=S)CCCCC2"
Ans: > 100 µM

Q: Return reported TGI. Input compound: CC1(C)CCCCCC(O)C(O)CCC(C)(C)C1=O (stereo unspecified)
Ans: > 100 µM

Q: Return reported TGI. Input compound: "Cc1nc(N)c(N2CCN(S(=O)(=O)N(Cc3ccccc3)Cc3ccccc3)CC2)c(=O)[nH]1"
Ans: > 100 µM

Q: Return reported TGI. Input compound: C/C(=N\N=C(N)N)C(CN1CCOCC1)C(c1ccccc1)c1c(O)c2ccccc2oc1=O (stereo unspecified)
Ans: > 100 µM

Your task in this section: give TGI for each listed record.
1. N=C1C=CC(=C(c2ccc(N)cc2)c2ccc(N)cc2)C=C1
2. c1ccc2c(N=NSc3ncnc4nc[nH]c34)c3ccccc3nc2c1
3. COc1cc2c3c(n(C)c(=O)c2cc1OC)-c1cc2c(cc1/C3=C\CCCCl)OCO2
4. Cc1ccc(/C=C2\CCCCC2=O)cc1
5. CC1CN(c2cc3c(cc2F)c(=O)c(C(=O)O)cn3-c2ccc(N3CCN(C)CC3)cn2)CC(C)N1 (stereo unspecified)
6. NC(=O)NNC/C(Cl)=C(\Cl)C(=O)O

Ans:
1. 42.1 µM
2. 4.83 µM
3. 43.2 µM
4. 45.4 µM
5. > 100 µM
6. > 100 µM
